Test system: 945468-187-T-J2-PDC spheroids viability
Experiment: Anticancer human tumor 945468-187-T-J2-PDC patient-derived rectal carcinoma cell line growth inhibition [PI3K]
Conditions: second compound 0.1 µM; first compound 1 µM; stronger effect = lower value; spheroids with HUVEC and MSC
Text: Combinatorial screen of targeted agents with the PI3K inhibitors inavolisib, alpelisib, duvelisib, and copanlisib in multi-cell type tumor spheroids A high-throughput screen of multi-cell type tumor spheroids was designed to identify active combinations of targeted small molecules and PI3K pathway inhibitors. […] Compounds. […] If the clinical Cmax for an agent had not been determined, the highest concentration tested was 10 microM. […]
Recorded viability, T/C by entry
Answer in %, number only, no unit symbol.

Worked examples follow.
compound | test_target | viability, T/C, %
C=CC(=O)N1CCN(c2nc(=O)n(-c3c(C)ccnc3C(C)C)c3nc(-c4c(O)cccc4F)c(F)cc23)C(C)C1 (stereo not given) + Cc1nc(NC(=O)N2CCCC2C(N)=O)sc1-c1ccnc(C(C)(C)C(F)(F)F)c1 | 945468-187-T-J2-PDC spheroids viability | 97.5
C=CC(=O)N1CCN(c2nc(=O)n(-c3c(C)ccnc3C(C)C)c3nc(-c4c(O)cccc4F)c(F)cc23)C(C)C1 (stereo not given) + CC(Nc1ccc2c(c1)OCCn1cc(N3C(=O)OCC3C(F)F)nc1-2)C(N)=O | 945468-187-T-J2-PDC spheroids viability | 98.4
C[C@@H](NC(=O)c1ncnc(N)c1Cl)c1ncc(C(=O)Nc2cc(C(F)(F)F)c(Cl)cn2)s1 + CC(Nc1ncnc2nc[nH]c12)c1cc2cccc(Cl)c2c(=O)n1-c1ccccc1 | 945468-187-T-J2-PDC spheroids viability | 68.7
CC(Cn1ccc(-c2ccc(C#N)c(Cl)c2)n1)NC(=O)c1cc(C(C)O)[nH]n1 (stereo not given) + COc1c(OCCCN2CCOCC2)ccc2c3n(c(=NC(=O)c4cnc(N)nc4)nc12)CCN3 | 945468-187-T-J2-PDC spheroids viability | 94.3

Give the measured viability, T/C of C#Cc1c(F)ccc2cc(O)cc(-c3ncc4c(N5CC6CCC(C5)N6)nc(OCC56CCCN5CC(F)C6)nc4c3F)c12 (stereo not given) + CC(Nc1ccc2c(c1)OCCn1cc(N3C(=O)OCC3C(F)F)nc1-2)C(N)=O .
93.3

====

Test system: 945468-187-T-J2-PDC spheroids viability
Experiment: Anticancer human tumor 945468-187-T-J2-PDC cell line growth inhibition [PI3K];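 also: spheroids exposed to compounds for seven days before reading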
Conditions: second compound 0.01 µM; first compound 3.16 µM; stronger effect = lower value; spheroids with HUVEC and MSC
Description: Combinatorial screen of targeted agents with the PI3K inhibitors inavolisib, alpelisib, duvelisib, and copanlisib in multi-cell type tumor spheroids A high-throughput screen of multi-cell type tumor spheroids was designed to identify active combinations of targeted small molecules and PI3K pathway inhibitors. […] Compounds. […] If the clinical Cmax for an agent had not been determined, the highest concentration tested was 10 microM. […]
attribute_measured: viability, T/C (%)
Answer in %, number only, no unit symbol.

Worked examples follow.
compound | viability, T/C (%)
CC1(C)CCC(Nc2ncc(C(F)(F)F)c(-c3c[nH]c4c(P(C)(C)=O)c(C#N)ccc34)n2)CN1 (stereo unspecified) + CC(Nc1ccc2c(c1)OCCn1cc(N3C(=O)OCC3C(F)F)nc1-2)C(N)=O | 40.5
C[C@@H](NC(=O)c1ncnc(N)c1Cl)c1ncc(C(=O)Nc2cc(C(F)(F)F)c(Cl)cn2)s1 + COc1c(OCCCN2CCOCC2)ccc2c3n(c(=NC(=O)c4cnc(N)nc4)nc12)CCN3 | 112
Cn1nccc1Nc1nccc(-c2ccn(C(CO)c3ccc(Cl)c(F)c3)c(=O)c2)n1 (stereo unspecified) + COc1c(OCCCN2CCOCC2)ccc2c3n(c(=NC(=O)c4cnc(N)nc4)nc12)CCN3 | 127

Give the measured viability, T/C of CNC(=O)c1ccc(N2C(=S)N(c3ccc(C#N)c(C(F)(F)F)c3)C(=O)C2(C)C)cc1F + CC(Nc1ccc2c(c1)OCCn1cc(N3C(=O)OCC3C(F)F)nc1-2)C(N)=O .
96.8

Same read-out for CC1(C)CCC(CN2CCN(c3ccc(C(=O)NS(=O)(=O)c4ccc(NCC5CCOCC5)c([N+](=O)[O-])c4)c(Oc4cnc5[nH]ccc5c4)c3)CC2)=C(c2ccc(Cl)cc2)C1 + COc1c(OCCCN2CCOCC2)ccc2c3n(c(=NC(=O)c4cnc(N)nc4)nc12)CCN3 ?
95.7

Same read-out for CC(C)NCC(C(=O)N1CCN(c2ncnc3c2C(C)CC3O)CC1)c1ccc(Cl)cc1 (stereo unspecified) + CC(Nc1ccc2c(c1)OCCn1cc(N3C(=O)OCC3C(F)F)nc1-2)C(N)=O ?
97.7
